These measurements were taken from patent US20210198201A1.

# measurement-target: mMC1r (Mus musculus, UniProt Q01727)
# Construct: endogenous in cells
# Sequence (Q01727 whole entry): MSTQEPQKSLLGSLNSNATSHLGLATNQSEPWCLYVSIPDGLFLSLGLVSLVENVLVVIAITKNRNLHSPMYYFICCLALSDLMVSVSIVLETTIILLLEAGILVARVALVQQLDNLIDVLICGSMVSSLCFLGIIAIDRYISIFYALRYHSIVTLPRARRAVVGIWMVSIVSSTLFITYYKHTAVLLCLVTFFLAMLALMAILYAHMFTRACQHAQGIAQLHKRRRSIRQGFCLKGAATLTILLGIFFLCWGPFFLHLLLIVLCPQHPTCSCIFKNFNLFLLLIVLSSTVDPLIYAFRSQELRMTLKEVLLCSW
# measurement-protocol: cAMP assay mMC1r (B16-F1 cells, NDP-α-MSH reference)
reported-property: EC50 (nM)
Just the number please, in nM, no unit attached.

[Q] Query (molecule): CC(=O)N1CCC(N(CC(C)C)N2CCN(C(=O)[C@@H](Cc3ccc(Cl)cc3)NC(=O)C(C)(C)N)CC2)CC1 ; field requested: EC50
[A] 460

* * *

# measurement-target: UniProt P32245
# Sequence (P32245 whole entry): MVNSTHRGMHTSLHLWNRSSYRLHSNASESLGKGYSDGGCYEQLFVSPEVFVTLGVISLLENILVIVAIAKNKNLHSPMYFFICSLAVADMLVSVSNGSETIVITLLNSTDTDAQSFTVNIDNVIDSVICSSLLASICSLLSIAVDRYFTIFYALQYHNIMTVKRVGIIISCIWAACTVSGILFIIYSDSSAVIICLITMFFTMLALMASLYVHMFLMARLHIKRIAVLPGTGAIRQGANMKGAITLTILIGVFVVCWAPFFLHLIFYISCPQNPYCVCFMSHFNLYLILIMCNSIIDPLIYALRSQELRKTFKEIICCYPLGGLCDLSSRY
# measurement-protocol: cAMP assay hMC4r (human recombinant CHO cells, NDP-α-MSH reference)
# Format: cell-based
# Parameters: expressed in transfected cells; host or cells: CHO
reported-property: pEC50
FYI, pEC50 means -log10 of a concentration in mol per litre.

[Q] Query (compound): CC(=O)N1CCC(N(CC(C)C)N2CCN(C(=O)[C@@H](Cc3ccc(Cl)cc3)NC(=O)C(C)(C)N)CC2)CC1 ; field requested: pEC50
[A] 8.22
